system: ACHN; assay: NCI tumour cell line growth inhibition, 48 h
Activity calls are given as the source filed them. Cut-off read from the data, not from the text of the source: active = GI50 up to about 1.1 µM and inactive = higher.
# GI50 values compiled below

Completed entries (count: 4):
MOLECULE | GI50
C/C(CC(O)(C(F)(F)Cl)C(F)(F)Cl)=N\Nc1ccccc1 | 27 µM (inactive)
NC(=O)N/N=C(/CC1C(=O)Oc2ccccc21)c1ccccc1O (stereo not given) | 39.7 µM (inactive)
Cc1nnc(N)nc1/C=C\c1cccs1 | 15 µM (inactive)
Nc1nc(N)c2ncn(Cc3c(Cl)cccc3Cl)c2n1 | > 100 µM (inactive)

Which measured GI50 belongs to COc1cc(-c2c3c(cc4c2OCO4)[C@@H](Nc2ccc(-c4ccc(-c5ccc(N[C@@H]6c7cc8c(cc7C(c7cc(OC)c(O)c(OC)c7)[C@H]7C(=O)OC[C@H]67)OCO8)cc5)cc4)cc2)[C@H]2COC(=O)[C@@H]2C3)cc(OC)c1O (stereo not given in full) , tested on ACHN?
2.24 µM (inactive)

Which measured GI50 belongs to CC1OC(OC2C(OC(=O)[C@]34CCC(C)(C)CC3C3=CCC5[C@@]6(C)C[C@H](O)[C@H](OC7OC(CO)C(O)C(O)C7N)[C@@](C)(C(=O)O)C6CC[C@@]5(C)C3(C)CC4)OCC(O)C2O)C(O)C(O)C1OC1OCC(O)C(O)C1O (stereo not given in full) , tested on ACHN?
> 100 µM (inactive)

Which measured GI50 belongs to O=C(Cn1c2ccc(Br)cc2c2nc3ccccc3nc21)N/N=C/c1ccccc1 , tested on ACHN?
> 100 µM (inactive)

Which measured GI50 belongs to O=C(NC(=O)c1cc(-c2ccccc2)n[nH]1)c1ccccc1 , tested on ACHN?
> 100 µM (inactive)

Which measured GI50 belongs to CCOC(=O)CN(Cc1ccccc1)Cc1c(C(=O)c2ccccc2)c2ccccc2n1C(=O)c1ccccc1 , tested on ACHN?
> 100 µM (inactive)
